Test system: JEG-3
EXPERIMENT SUMMARY: Primary qHTS to identify gynecologic anti-cancer compounds using libraries of approved drugs and bioactive compounds (AID 1345084); also: % is scaled to controls: 0 for no effect and ±100 for the full control effect; nearly all actives have a fitted effect of over 55% in size
EXPERIMENTAL SETUP: Gynecologic cancer cell panel viability, ATPlite luminescence, 48 h; series mostly up to 57.5 µM
Results filed as inconclusive are left out. Activity calls are given as the source filed them. Calls follow the shape of the dose curve; as a rule, active = well fitted cell-killing curve with a large enough effect; inconclusive = small, poorly fitted or top-dose-only effect, or effect the other way; inactive = flat fitted curve, though single readings scatter.
PARAMETER MEASURED: activity change, negative = cytotoxicity

// below: answered compounds
What measured activity change, negative = cytotoxicity goes with COc1cc(C)c(C(=O)OC2C(C)OC(OC3CCC(C)C4C3C=C(C)C3/C(C)=C\CC/C(C)=C/C5(C)C=C(C(=O)O)C(C)CC56OC(=O)/C(=C(\O)C34C)C6=O)C(O)C2O)c(OC)c1 (stereo not given) ?
-0.361% [at 11.6 µM] (inactive)

What measured activity change, negative = cytotoxicity goes with C=CC(C)(O)C1CC2C3(C)CCCC(C)(C)C3C(O)C(O)C2(C)O1 (stereo not given) ?
inactive

What measured activity change, negative = cytotoxicity goes with COc1ccc(C2OCC3C(c4cc(OC)c5c(c4)OCO5)OCC23)cc1OC (stereo not given) ?
inactive

What measured activity change, negative = cytotoxicity goes with O=C(CC1CC(c2ccc(F)cc2F)=NO1)N1CCOCC1 (stereo not given) ?
inactive

// next item, activity change, negative = cytotoxicity requested
What measured activity change, negative = cytotoxicity goes with C[C@@H]1O[C@@H](O[C@H]2[C@H](OC(=O)[C@]34CCC(C)(C)C[C@H]3C3=CCC5[C@@]6(C)CC[C@H](O[C@@H]7O[C@H](CO[C@@H]8OC[C@H](O)[C@H](O)[C@H]8O)[C@@H](O)[C@H](O)[C@H]7O)C(C)(C)C6CC[C@@]5(C)[C@]3(C)C[C@H]4O)OC[C@@H](O)[C@@H]2O)[C@H](O)[C@H](O[C@@H]2OC[C@](O)(CO)[C@H]2O)[C@H]1O[C@@H]1OC[C@H](O)[C@H](O[C@@H]2OC[C@@H](O)[C@H](O)[C@H]2O)[C@H]1O (stereo not given in full) ?
-2.51% [at 6.55 µM] (inactive)
